Target: hα2A receptor (Homo sapiens)
Construct: expressed in transfected cells; host or cells: CHO cells, stably transfected; membrane preparation
Sequence (P08913 whole entry): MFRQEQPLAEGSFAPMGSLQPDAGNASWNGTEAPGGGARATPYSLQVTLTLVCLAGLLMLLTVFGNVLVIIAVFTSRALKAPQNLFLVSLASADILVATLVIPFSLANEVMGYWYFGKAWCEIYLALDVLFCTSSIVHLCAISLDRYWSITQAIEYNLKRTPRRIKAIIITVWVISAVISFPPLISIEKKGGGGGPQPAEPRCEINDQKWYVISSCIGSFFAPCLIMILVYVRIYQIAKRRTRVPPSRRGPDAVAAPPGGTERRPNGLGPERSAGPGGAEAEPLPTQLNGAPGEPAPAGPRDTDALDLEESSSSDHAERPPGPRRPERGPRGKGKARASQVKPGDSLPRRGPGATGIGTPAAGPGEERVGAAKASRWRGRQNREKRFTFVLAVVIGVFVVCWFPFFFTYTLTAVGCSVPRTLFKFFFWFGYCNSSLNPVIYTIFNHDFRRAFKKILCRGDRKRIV
Assay: Radioligand binding experiment for α2A-adrenoceptor ([3H]raulwolscine, CHO cell membranes)
Details: [3H]raulwolscine binding
quantity: h-α2A pIC50

compound	h-α2A pIC50
C/C(=C\c1ccccc1)CN1CCC(Nc2nccn(CC(=O)O)c2=O)CC1 [3-1]	6.6
C/C(=C\c1ccccc1)CN1CCC(Nc2nccn(-c3ccc(CNC(=O)OC(C)(C)C)cc3)c2=O)CC1 [1-91]	6.5
COCCN(C)Cc1ccc(-n2ccnc(NC3CCN(C/C(C)=C/c4ccccc4)CC3)c2=O)cc1 [1-26]	7.2
COC(=O)CCNCc1ccc(-n2ccnc(NC3CCN(C/C(C)=C/c4ccccc4)CC3)c2=O)cc1 [1-96]	7.1
CCOC(=O)N1CCC(NCc2ccc(-n3ccnc(NC4CCN(C/C(C)=C/c5ccccc5)CC4)c3=O)cc2)CC1 [1-128]	7.0
CCOC(=O)N1CCC(NCc2cccc(-n3ccnc(NC4CCN(C/C(C)=C/c5ccccc5)CC4)c3=O)c2)CC1 [1-127]	7.3
C/C(=C\c1ccccc1)CN1CCC(Nc2nccn(-c3cccc(CNCCN(C)C)c3)c2=O)CC1 [1-106]	7.9
CCN(CC)C(=O)NCc1ccc(-n2ccnc(NC3CCN(C/C(C)=C/c4ccccc4)CC3)c2=O)cc1 [1-117]	6.7
C/C(=C\c1ccccc1)CN1CCC(Nc2nccn(-c3cccc(CN(C)Cc4ccccc4)c3)c2=O)CC1 [1-53]	8.4
CCCNCc1cccc(-n2ccnc(NC3CCN(C/C(C)=C/c4ccccc4)CC3)c2=O)c1 [1-12]	8.4
CC(=O)NCc1ccc(-n2ccnc(NC3CCN(C/C(C)=C/c4ccccc4)CC3)c2=O)cc1 [1-29]	7.0
C/C(=C\c1ccccc1)CN1CCC(Nc2nccn(-c3ccc(CN4C(=O)c5ccccc5C4=O)cc3)c2=O)CC1 [2-55]	6.8
C/C(=C\c1ccccc1)CN1CCC(Nc2nccn(-c3cccc(CN(C)CCN(C)C)c3)c2=O)CC1 [1-109]	8.2
COC(=O)CN(C)Cc1cccc(-n2ccnc(NC3CCN(C/C(C)=C/c4ccccc4)CC3)c2=O)c1 [1-98]	7.5
C/C(=C\c1ccccc1)CN1CCC(Nc2nccn(-c3cccc(CNCCN4CCCC4)c3)c2=O)CC1 [1-130]	8.2
COC(=O)CCNCc1cccc(-n2ccnc(NC3CCN(C/C(C)=C/c4ccccc4)CC3)c2=O)c1 [1-95]	7.6
